Just for reference, ChEMBL document CHEMBL4340569 is where these values come from.

Measured MIC, listed per entry for reference.
- Test system: Enterococcus faecium
- PROTOCOL: Antimicrobial activity against vancomycin-resistant Enterococcus faecium F118 by broth dilution method
- Type: functional

{"columns": ["COMPOUND STRUCTURE STRING", "MIC / µM"],
 "data": [
  ["Fc1ccc(-c2cc(/C=C/N3CCNCC3)[o+]c(-c3ccc(F)cc3)c2)cc1", 8.84],
  ["CN(C)c1ccc(/C=C/c2cc(-c3ccc(Br)cc3)cc(-c3ccc(Br)cc3)[o+]2)cc1.F[B-](F)(F)F", 5.65],
  ["OCCN(CCO)c1ccc(/C=C/c2cc(-c3cccc(F)c3)cc(-c3cccc(F)c3)[o+]2)cc1", 12.5],
  ["CN(C)c1ccc(/C=C/c2cc(-c3ccc(F)cc3)cc(-c3ccc(F)cc3)[o+]2)cc1.F[B-](F)(F)F", 6.25]
]}

###

- PROTOCOL: Binding affinity to bacterial lipid 2 by surface plasmon resonance assay
- Design: species or system Bacteria
Entries and their Kd values follow.

{"columns": ["COMPOUND STRUCTURE STRING", "Kd"],
 "data": [
  ["Fc1ccc(-c2cc(/C=C/N3CCNCC3)[o+]c(-c3ccc(F)cc3)c2)cc1", "6.2 µM"],
  ["OCCN(CCO)c1ccc(/C=C/c2cc(-c3cccc(F)c3)cc(-c3cccc(F)c3)[o+]2)cc1", "0.31 µM"],
  ["CN(C)c1ccc(/C=C/c2cc(-c3ccc(Br)cc3)cc(-c3ccc(Br)cc3)[o+]2)cc1.F[B-](F)(F)F", "0.15 µM"],
  ["CN(C)c1ccc(/C=C/c2cc(-c3ccc(F)cc3)cc(-c3ccc(F)cc3)[o+]2)cc1.F[B-](F)(F)F", "0.34 µM"]
]}

###

- Test system: Enterococcus faecium
- PROTOCOL: Antimicrobial activity against Enterococcus faecium EF1509 by broth dilution method
- Assay type: functional
PARAMETER: log10 of MIC (log10 of the value in µM)

{"columns": ["COMPOUND STRUCTURE STRING", "log10 of MIC"],
 "data": [
  ["CN1/C(=C/c2ccc(/C=C/c3cc(-c4ccc(Br)cc4)cc(-c4ccc(Br)cc4)[o+]3)cc2)C(C)(C)c2ccccc21", 1.09],
  ["OCCN(CCO)c1ccc(/C=C/c2cc(-c3cccc(F)c3)cc(-c3cccc(F)c3)[o+]2)cc1", 0.59],
  ["ClCCN(/C=C/c1cc(-c2cccc(Br)c2)cc(-c2cccc(Br)c2)[o+]1)CCCl", 1.69],
  ["O=C(c1ccccc1)N1CCN(c2ccc(/C=C/c3cc(-c4ccc(F)cc4)cc(-c4ccc(F)cc4)[o+]3)cc2)CC1", 1.76],
  ["CN(C)c1ccc(/C=C/c2cc(-c3ccc(F)cc3)cc(-c3ccc(F)cc3)[o+]2)cc1.F[B-](F)(F)F", 0.30],
  ["Fc1ccc(-c2cc(/C=C/N3CCNCC3)[o+]c(-c3ccc(F)cc3)c2)cc1", 0.28]
]}

###

- PROTOCOL: Volume of distribution at steady state in CD1 mouse at […], iv measured after 5 mins to 14 hrs by LC/MS/MS analysis
- Format: ADME, organism-based
- RUN PARAMETERS: CD1, mouse, in vivo, read-out: Vdss
PARAMETER: Vd (L/kg)

{"columns": ["COMPOUND STRUCTURE STRING", "UNIT INFO", "MEAS VALUE"],
 "data": [
  ["CN(C)c1ccc(/C=C/c2cc(-c3ccc(F)cc3)cc(-c3ccc(F)cc3)[o+]2)cc1.F[B-](F)(F)F", "L/kg", 46.3],
  ["CN1/C(=C/C=C/c2cc(-c3ccccc3)cc(-c3ccccc3)[o+]2)C(C)(C)c2ccccc21.F[B-](F)(F)F", "L/kg", 12.2]
]}

###

- PROTOCOL: MRT in CD1 mouse at […], iv measured after 5 mins to 14 hrs by LC/MS/MS analysis
- Assay type: ADME, organism-based
- RUN PARAMETERS: CD1, mouse, in vivo, read-out: MRT

{"columns": ["COMPOUND STRUCTURE STRING", "UNIT INFO", "MRT"],
 "data": [
  ["CN(C)c1ccc(/C=C/c2cc(-c3ccc(F)cc3)cc(-c3ccc(F)cc3)[o+]2)cc1.F[B-](F)(F)F", "min", 104],
  ["CN1/C(=C/C=C/c2cc(-c3ccccc3)cc(-c3ccccc3)[o+]2)C(C)(C)c2ccccc21.F[B-](F)(F)F", "min", 13.6]
]}

###

Item-by-item account of Cmax
- PROTOCOL: Cmax in CD1 mouse at […], iv measured after 5 mins to 14 hrs by LC/MS/MS analysis
- Format: ADME, organism-based
- Design: dose 2.5 mg/kg, route intravenous
- RUN PARAMETERS: in vivo
PARAMETER: Cmax (ng/mL)

{"columns": ["COMPOUND STRUCTURE STRING", "PARAMETER", "MEAS VALUE"],
 "data": [
  ["CN(C)c1ccc(/C=C/c2cc(-c3ccc(F)cc3)cc(-c3ccc(F)cc3)[o+]2)cc1.F[B-](F)(F)F", "Cmax", 3220],
  ["CN1/C(=C/C=C/c2cc(-c3ccccc3)cc(-c3ccccc3)[o+]2)C(C)(C)c2ccccc21.F[B-](F)(F)F", "Cmax", 101]
]}

###

- PROTOCOL: Ratio of EC50 for human HeLa cells to MIC of Enterococcus faecium
- Format: toxicity

{"columns": ["COMPOUND STRUCTURE STRING", "REPORTED RELATION", "selectivity ratio"],
 "data": [
  ["CN(C)c1ccc(/C=C/c2cc(-c3ccc(Br)cc3)cc(-c3ccc(Br)cc3)[o+]2)cc1.F[B-](F)(F)F", "≥", 80],
  ["Fc1ccc(-c2cc(/C=C/N3CCNCC3)[o+]c(-c3ccc(F)cc3)c2)cc1", "=", 62.6],
  ["CN(C)c1ccc(/C=C/c2cc(-c3ccc(F)cc3)cc(-c3ccc(F)cc3)[o+]2)cc1.F[B-](F)(F)F", "≥", 80],
  ["OCCN(CCO)c1ccc(/C=C/c2cc(-c3cccc(F)c3)cc(-c3cccc(F)c3)[o+]2)cc1", "=", 49.3]
]}

###

- Test system: Enterococcus faecium
- PROTOCOL: Antimicrobial activity against Enterococcus faecium EF1509 by broth dilution method
- Format: functional
PARAMETER: MIC

{"columns": ["COMPOUND STRUCTURE STRING", "TEST SYSTEM", "MEAS VALUE"],
 "data": [
  ["Brc1ccc(-c2cc(/C=C/c3ccc(N4CCOCC4)cc3)[o+]c(-c3ccc(Br)cc3)c2)cc1", "Enterococcus faecium", "> 80 µM"],
  ["CCN(CC)c1ccc(/C=C/c2cc(-c3ccc(Br)cc3)cc(-c3ccc(Br)cc3)[o+]2)cc1", "Enterococcus faecium", "> 80 µM"],
  ["CC(C)(C)OC(=O)N1CCN(c2ccc(/C=C/c3cc(-c4ccc(F)cc4)cc(-c4ccc(F)cc4)[o+]3)cc2)CC1", "Enterococcus faecium", "> 80 µM"],
  ["ClCCN(CCCl)c1ccc(/C=C/c2cc(-c3ccc(Br)cc3)cc(-c3ccc(Br)cc3)[o+]2)cc1", "Enterococcus faecium", "> 80 µM"],
  ["CN(/C=C/c1cc(-c2cccc(Br)c2)cc(-c2cccc(Br)c2)[o+]1)CCO", "Enterococcus faecium", "> 80 µM"]
]}
